system: Staphylococcus aureus MS-8710; test: antimicrobial activity, broth dilution method; format: cell-based; settings: Staphylococcus aureus, MS8710, Staphylococcus aureus MS-8710, drug-resistant clinical isolate; read-out: minimum inhibitory concentration (MIC)
RECORDED METRIC: MIC

Value of measured MIC for the entry CCC1OC(=O)CC(O)C(C)C(OC2OC(C)C(OC3CC(C)(O)C(O)C(C)O3)C(N(C)C)C2OC(C)=O)C(CC=O)CC(C)C(=O)C=CC(C)=CC1COC1OC(C)C(O)C(OC)C1OC (centres unmarked) [2'-acetyltylosin, reference compound] : > 200 µg/mL

Value of measured MIC for the entry CCCCCCCC(=O)OC1C(C)OC(OC2C(C)OC(OC3C(CC=O)CC(C)C(=O)C=CC(C)=CC(COC4OC(C)C(O)C(OC)C4OC)C(CC)OC(=O)CC(O)C3C)C(O)C2N(C)C)CC1(C)O (centres unmarked) : 25 µg/mL

Value of measured MIC for the entry CCC1OC(=O)CC(OC(C)=O)C(C)C(OC2OC(C)C(OC3CC(C)(O)C(OC(=O)CN(C(C)=O)c4ccccc4)C(C)O3)C(N(C)C)C2O)C(CC=O)CC(C)C(=O)C=CC(C)=CC1COC1OC(C)C(O)C(OC)C1OC (centres unmarked) : 12.5 µg/mL

Value of measured MIC for the entry CCCCCC(=O)OC1C(C)OC(OC2C(C)OC(OC3C(CC=O)CC(C)C(=O)C=CC(C)=CC(COC4OC(C)C(O)C(OC)C4OC)C(CC)OC(=O)CC(O)C3C)C(O)C2N(C)C)CC1(C)O (centres unmarked) : 12.5 µg/mL

Value of measured MIC for the entry CCC1OC(=O)CC(OC(C)=O)C(C)C(OC2OC(C)C(OC3CC(C)(O)C(OC(=O)Cc4cccnc4)C(C)O3)C(N(C)C)C2O)C(CC=O)CC(C)C(=O)C=CC(C)=CC1COC1OC(C)C(O)C(OC)C1OC (centres unmarked) : 12.5 µg/mL

###

Would you kindly list MIC for each of these compounds?
test system: Staphylococcus aureus MS-8710; assay: antimicrobial activity, broth dilution method; format: cell-based; settings: Staphylococcus aureus, MS8710, Staphylococcus aureus MS-8710, drug-resistant clinical isolate; read-out: minimum inhibitory concentration (MIC)
Give the quantity in µg/mL, number only.

Value of measured MIC for the entry CCC1OC(=O)CC(OC(C)=O)C(C)C(OC2OC(C)C(OC3CC(C)(O)C(OC(=O)CCc4ccccc4)C(C)O3)C(N(C)C)C2O)C(CC=O)CC(C)C(=O)C=CC(C)=CC1COC1OC(C)C(O)C(OC)C1OC (stereo not drawn) [Compound 25, 3-acetyl-4"-β-phenylpropionyltylosin] : 50

Value of measured MIC for the entry CCC1OC(=O)CC(OC(C)=O)C(C)C(OC2OC(C)C(OC3CC(C)(O)C(OC(=O)C(O)Cc4ccccc4)C(C)O3)C(N(C)C)C2O)C(CC=O)CC(C)C(=O)C=CC(C)=CC1COC1OC(C)C(O)C(OC)C1OC (stereo not drawn) [Compound 26] : 50

Value of measured MIC for the entry CCC1OC(=O)CC(OC(C)=O)C(C)C(OC2OC(C)C(OC3CC(C)(O)C(OC(=O)C(Cc4ccccc4)OC(C)=O)C(C)O3)C(N(C)C)C2O)C(CC=O)CC(C)C(=O)C=CC(C)=CC1COC1OC(C)C(O)C(OC)C1OC (stereo not drawn) [Compound 27] : 50
